- measuredTarget: T1, WWP2.1 WW domain expressed as GST fusion protein (human)
- T1 construct: Whole WWP2 entry named; not shown: glutathione S-transferase (GST) fusion partner
- T1 sequence (chain, as listed by the source): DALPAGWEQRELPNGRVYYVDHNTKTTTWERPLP
- protocol: cross affinity mapping, GST-WW fusion
No end group written: not given here. *: point of attachment. Biotin = O=C1N[C@H]2[C@H](CS[C@H]2CCCCC(=O)*)N1
experimentalReadout: binding result

>>> result("Biotin-PGTPPPNHDSLRL [ENaCβ-Y618H peptide]")
"no binding"
>>> result("NRLDLPPAETFED (also: biotinylated, Short peptide)")
"no binding"
>>> result("NRLDLPPAKSYEQ (also: biotinylated, Short peptide)")
"no binding"
>>> result("Biotin-PGTPPLNYDSLRL [ENaCβ-P616L peptide]")
"no binding"
